Note that class boundaries on log10 vapour pressure (mmHg) are low bracket (below -4), middle bracket (-4 to below -1), high bracket (-1 or more)

{"COMPOUND": "ClCC(Cl)(Cl)Cl", "CLASS ASSIGNMENT": "high bracket"}
{"COMPOUND": "c1ccc(COc2ccccc2)cc1", "CLASS ASSIGNMENT": "middle bracket"}
{"COMPOUND": "CCCCCC(C)Br (centres undefined)", "CLASS ASSIGNMENT": "high bracket"}
{"COMPOUND": "CCOc1ccccc1", "CLASS ASSIGNMENT": "high bracket"}
{"COMPOUND": "CCCCOC(=O)COc1ccc(Cl)cc1Cl", "CLASS ASSIGNMENT": "low bracket"}
{"COMPOUND": "CC12CCC(C1)C(C)(C)C2O (centres undefined)", "CLASS ASSIGNMENT": "middle bracket"}
{"COMPOUND": "FC(F)(Cl)C(F)(F)Cl", "CLASS ASSIGNMENT": "high bracket"}
{"COMPOUND": "Clc1ccc(Oc2cccc(Cl)c2)cc1", "CLASS ASSIGNMENT": "middle bracket"}
{"COMPOUND": "CCCC#N", "CLASS ASSIGNMENT": "high bracket"}
{"COMPOUND": "N#Cc1c[nH]cc1-c1cccc(Cl)c1Cl", "CLASS ASSIGNMENT": "low bracket"}
{"COMPOUND": "Cc1ccc(C)[nH]1", "CLASS ASSIGNMENT": "high bracket"}
{"COMPOUND": "c1ccc2c(c1)ccc1cc3c(ccc4ccccc43)cc12", "CLASS ASSIGNMENT": "low bracket"}
{"COMPOUND": "CCCCCCCCC(Br)CBr (centres undefined)", "CLASS ASSIGNMENT": "middle bracket"}
{"COMPOUND": "c1ccc(NNc2ccccc2)cc1", "CLASS ASSIGNMENT": "middle bracket"}
{"COMPOUND": "Nc1c(Cl)c(F)nc(OCC(=O)O)c1Cl", "CLASS ASSIGNMENT": "low bracket"}
{"COMPOUND": "c1ccc(Nc2ccccc2)cc1", "CLASS ASSIGNMENT": "middle bracket"}
{"COMPOUND": "OC(C(F)(F)F)C(F)(F)F", "CLASS ASSIGNMENT": "high bracket"}
{"COMPOUND": "C=CCCCCCCCCCCCCCCCC", "CLASS ASSIGNMENT": "low bracket"}
{"COMPOUND": "CCOP(=O)(OCC)OCC", "CLASS ASSIGNMENT": "high bracket"}
{"COMPOUND": "O=S(=O)(c1ccc(Cl)cc1)c1cc(Cl)c(Cl)cc1Cl", "CLASS ASSIGNMENT": "low bracket"}
{"COMPOUND": "Cc1cccc(O)c1C", "CLASS ASSIGNMENT": "middle bracket"}
{"COMPOUND": "CC(C)(C)C(O)/C(=C\\c1ccc(Cl)cc1Cl)n1cncn1 (centres undefined)", "CLASS ASSIGNMENT": "low bracket"}
{"COMPOUND": "Clc1cc2c(Cl)c(Cl)c(Cl)c(Cl)c2c(Cl)c1Cl", "CLASS ASSIGNMENT": "low bracket"}
{"COMPOUND": "FC(F)(F)c1ccccc1", "CLASS ASSIGNMENT": "high bracket"}
{"COMPOUND": "CCCCCCCC(=O)Oc1c(Br)cc(C#N)cc1Br", "CLASS ASSIGNMENT": "low bracket"}
{"COMPOUND": "Cc1cc(=O)[nH]o1", "CLASS ASSIGNMENT": "middle bracket"}
{"COMPOUND": "CCCCCCCCCCOC(=O)Cl", "CLASS ASSIGNMENT": "middle bracket"}
{"COMPOUND": "FC(F)(F)C(Cl)Br (centres undefined)", "CLASS ASSIGNMENT": "high bracket"}
{"COMPOUND": "Nc1cccc2ncccc12", "CLASS ASSIGNMENT": "low bracket"}
{"COMPOUND": "C#CCO", "CLASS ASSIGNMENT": "high bracket"}
{"COMPOUND": "Cc1ccc([N+](=O)[O-])cc1C", "CLASS ASSIGNMENT": "middle bracket"}
